Test system: ATP;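 also: ATP exposure 15 min at 22 °C before imaging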
ASSAY: switch fluorescence ratio, 500 uM ATP over buffer (Cy3 cluster intensity, sum of 5 cycles each) (fold (ratio)); higher = stronger signal-on switching upon ATP binding; sequences stand for … in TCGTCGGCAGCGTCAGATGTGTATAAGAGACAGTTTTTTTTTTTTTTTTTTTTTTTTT…TC
CONDITION: aptamer strand: ATP DNA aptamer (quencher-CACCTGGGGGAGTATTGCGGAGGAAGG + anchor), 100 nM annealed; ATP concentration: 500 uM
I'd appreciate it if you could supply switch fluorescence ratio values for the items below.
Answer with a bare number; do not write a unit.

Quick one: switch fluorescence ratio of `GGGTTATCGG` ?
0.967

Look at this sequence and give its reported switch fluorescence ratio. `TATATTAGCT`
1.01

I have this sequence here, `TGTGTGGGTA` , and I need its recorded switch fluorescence ratio.
0.958

GET /values?readout=switch fluorescence ratio&item= `TAGGTATTCA`
0.999

switch fluorescence ratio for `CTTGACAGA` ?
1.03

Look up switch fluorescence ratio: `TTTTTTATAG`
1

Returns the measured switch fluorescence ratio for the input sequence. Input: `TGACGAGCGA`
2.25

What measured switch fluorescence ratio goes with `AGTGGTTAGT` ?
1.05

Can you look up the measured switch fluorescence ratio of `ATGATTGGCA` for me?
0.99

I would be grateful if you could share the reported switch fluorescence ratio for `AGGGGTAAGG` .
1.03

Tell me the measured switch fluorescence ratio of `TAAGAGGGGT` , please.
1.03

Quick check: switch fluorescence ratio of `CGTTGCTTAG` ?
0.988

// query switch fluorescence ratio value for entry `TAACTGTGGA`
1.08

Which switch fluorescence ratio value belongs to `AATTGCCAGT` ?
1.01

Which switch fluorescence ratio is listed for `GTTATAAGGG` ?
0.975

// query switch fluorescence ratio value for entry `AAGGTTAAGG`
0.993

// switch fluorescence ratio lookup, key: `TAAAACGCTC`
1.07

Could you tell me which switch fluorescence ratio is on file for `TACCGCGGTT` ?
1.04

Tell me the measured switch fluorescence ratio of `ACTACTACTT` , please.
1.16

What value of switch fluorescence ratio has been recorded for this entry: `TGGGAACGGG`
0.983

Endpoint output: switch fluorescence ratio of `TTTTTGAGCG` . Value?
1.04
